Procedure Details: MTT assay, Hek293T non-leukemic control cells
Type: cell-based
Condition Notes: human, Hek293T cells, 1 μM, read-out: Viability rate
Procedure: K562, Jurkat, Molt-4, and Nalm-6 cell lines were cultured in RPMI-1640 medium (ECM2001, Euroclone), Reh cell line was cultured in DMEM medium (LM-D1111-Biosera) Hek293T cell line was cultured in IMDM medium (AL070A - HiMedia) supplemented with 10% heat-inactivated fetal bovine serum (F7524-Merck & Co., USA,) penicillin and streptomycin (P4333-Sigma Aldrich). […] Subsequently, viability rate of the cells at each concentration, as percentage, was determined by following formula (1): […]
Endpoint Name: viability at 24 h, 1 µM (%)
Answers are plain numbers, in %.

> print(dat)
                                   compound            endpoint.name  result
1  COc1ccc(CN2CCN(Cc3ccc(C(=O)Nc4ccc(C)c(Nc5nccc(C)n5)c4)cc3)CC2)c(OC)c1OC  viability at 24 h, 1 µM      87
2  Cc1ccc(NC(=O)c2ccc(CN3CCN(C)CC3)cc2)cc1Nc1nccc(-c2cccnc2)n1 [imatinib, reference compound]  viability at 24 h, 1 µM    77.7
3  Cc1ccnc(Nc2cc(NC(=O)c3ccc(CN4CCOCC4)cc3)ccc2C)n1  viability at 24 h, 1 µM    94.3
4  Cc1ccc(NC(=O)c2ccc(CN3CCN(c4ncccn4)CC3)cc2)cc1Nc1cnccn1  viability at 24 h, 1 µM      87
5  Cc1ccnc(Nc2cc(NC(=O)c3ccc(CN4CCOCC4)cc3)ccc2C)c1  viability at 24 h, 1 µM    89.5

[ask] Value lookup for viability at 24 h, 1 µM; key = COc1ccc(CN2CCN(Cc3ccc(C(=O)Nc4ccc(C)c(Nc5cc(C)ccn5)c4)cc3)CC2)c(OC)c1OC
[reply] 78.1

Every entry's value here was drawn from paper PMC10734772.
